Source: ChEMBL document CHEMBL2331335

Test system: Hepatitis B virus
assay.summary: Antiviral activity against HBV infected in human HepG2.2.15 cells assessed as inhibition of viral DNA replication
Format: functional, organism-based
measurement.conditions: HepG2 2.2.15
pIC50: −log10 of the molar value.
Listed below: pIC50 values for each entry.
reported.metric: pIC50

INSERT INTO measurements (molecule, assay_target, reported_metric, value_comparator, endpoint_result) VALUES
  ('CCC(=O)O[C@H]1C[C@@H]2C(=CC[C@@H]3[C@@]2(C)C(=O)C[C@]2(C)[C@@H]([C@@](C)(O)C(=O)CCC(C)(C)OC(C)=O)[C@H](O)C[C@@]32C)C(C)(C)[C@@H]1O', 'Hepatitis B virus', 'pIC50', '=', 5.33),
  ('CCOCC(=O)O[C@H]1C[C@H]2[C@]3(C)C(=O)C[C@]4(C)[C@@H]([C@@](C)(O)C(=O)CCC(C)(C)OC(C)=O)[C@H](OC(=O)COCC)C[C@@]4(C)[C@@H]3C[C@@H](O)[C@@]2(OC(=O)c2cccc(Cl)c2)C(C)(C)[C@@H]1OC(=O)COCC', 'Hepatitis B virus', 'pIC50', '<', 3.15),
  ('CCC(=O)O[C@@H]1[C@@H](O)C[C@@H]2C(=CC[C@@H]3[C@@]2(C)C(=O)C[C@]2(C)[C@@H]([C@@](C)(O)C(=O)CCC(C)(C)OC(C)=O)[C@H](O)C[C@@]32C)C1(C)C', 'Hepatitis B virus', 'pIC50', '=', 5.51),
  ('CC(=O)OC(C)(C)CCC(=O)[C@](C)(O)[C@H]1[C@H](O)C[C@@]2(C)[C@@H]3C[C@H]4O[C@@]45[C@@H](C[C@H](O)[C@@H](O)C5(C)C)[C@]3(C)C(=O)C[C@]12C', 'Hepatitis B virus', 'pIC50', '=', 4.94),
  ('COCC(=O)O[C@H]1C[C@H]2[C@]3(C)C(=O)C[C@]4(C)[C@@H]([C@@](C)(O)C(=O)CCC(C)(C)OC(C)=O)[C@H](OC(=O)COC)C[C@@]4(C)[C@@H]3C[C@@H](O)[C@@]2(OC(=O)c2cccc(Cl)c2)C(C)(C)[C@@H]1OC(=O)COC', 'Hepatitis B virus', 'pIC50', '<', 2.76),
  ('COc1cccc(/C=C/C(=O)O[C@H]2C[C@@H]3C(=CC[C@@H]4[C@@]3(C)C(=O)C[C@]3(C)[C@@H]([C@@](C)(O)C(=O)CCC(C)(C)OC(C)=O)[C@H](OC(=O)/C=C/c5cccc(OC)c5)C[C@@]43C)C(C)(C)[C@@H]2OC(=O)/C=C/c2cccc(OC)c2)c1', 'Hepatitis B virus', 'pIC50', '=', 4.29),
  ('CCOCC(=O)O[C@H]1C[C@@H]2C(=CC[C@@H]3[C@@]2(C)C(=O)C[C@]2(C)[C@@H]([C@@](C)(O)C(=O)CCC(C)(C)O)[C@H](OC(=O)COCC)C[C@@]32C)C(C)(C)[C@@H]1OC(=O)COCC', 'Hepatitis B virus', 'pIC50', '=', 4.07),
  ('CCCC(=O)O[C@H]1C[C@H]2[C@]3(C)C(=O)C[C@]4(C)[C@@H]([C@@](C)(O)C(=O)CCC(C)(C)OC(C)=O)[C@H](OC(=O)CCC)C[C@@]4(C)[C@@H]3C[C@H]3O[C@]32C(C)(C)[C@@H]1OC(=O)CCC', 'Hepatitis B virus', 'pIC50', '<', 3.21);
